B1: SMG5 (parent)
chain: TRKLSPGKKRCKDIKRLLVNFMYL

Variants of: B1
Experiment: protein stability index of a GFP-peptide fusion (GPS, HEK-293T) (PSI 1-6); higher = more stable;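 further: lentivirally expressed fusions sorted by FACS into six bins by GFP to DsRed ratio, PSI derived from sequencing read proportions per bin multiplied by bin number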
Conditions: c terminus: a fixed tail appended
So basically: protein stability index at 2 or higher? That is satisfied. Lower than 2? That is not satisfied.

Below, 3 variants whose answers are already recorded.
L17V ... not satisfied
C11F ... satisfied
I14H ... satisfied

Query variant follows.
q: Does protein stability index meet or surpass 2 for V19L ?
a: satisfied
